Test system: TTR
procedure_details: TTR editing in primary human hepatocytes transfected with Spy Cas9 mRNA and dgRNAs (Table 9)
Type: cell-based
condition_summary: dgRNA co-transfected with Spy Cas9 mRNA (SEQ ID NO:2)
Hi! Just check whether Avg % Deletion is below 1%. Below gives True, equal or above gives False.

{"columns": ["residues", "assayed_system", "group_label"],
 "data": [
  ["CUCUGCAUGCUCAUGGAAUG (tested as dual guide RNA, chemistry not given here) [CR003369]", "TTR", "True"],
  ["GUCACAGAAACACUCACCGU (tested as dual guide RNA, chemistry not given here) [CR005301]", "TTR", "False"],
  ["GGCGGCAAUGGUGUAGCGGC (tested as dual guide RNA, chemistry not given here) [CR003378]", "TTR", "False"],
  ["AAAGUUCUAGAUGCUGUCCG (tested as dual guide RNA, chemistry not given here) [CR003346]", "TTR", "False"],
  ["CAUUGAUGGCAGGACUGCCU (tested as dual guide RNA, chemistry not given here) [CR003347]", "TTR", "True"],
  ["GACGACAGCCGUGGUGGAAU (tested as dual guide RNA, chemistry not given here) [CR003388]", "TTR", "False"]
]}

As a next step, examine the sequence that follows.
Data request: Strictly below 1% in Avg % Deletion? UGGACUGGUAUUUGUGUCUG (tested as dual guide RNA, chemistry not given here) [CR003340]
Data returned: False

###

Tested on: TTR
procedure_details: TTR editing in primary human hepatocytes transfected with Spy Cas9 mRNA and dgRNAs (Table 9)
Format: cell-based
condition_summary: dgRNA co-transfected with Spy Cas9 mRNA (SEQ ID NO:2)
value_type: Avg % Edit (%)
Response body: numeric value in %, unit text excluded.

Example entries and their recorded answers appear below.
{"columns": ["residues", "value_type", "number"],
 "data": [
  ["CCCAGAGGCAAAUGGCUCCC (tested as dual guide RNA, chemistry not given here) [CR003355]", "Avg % Edit", 12.07],
  ["UCCACUCAUUCUUGGCAGGA (tested as dual guide RNA, chemistry not given here) [CR005298]", "Avg % Edit", 15.70],
  ["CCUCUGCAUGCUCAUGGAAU (tested as dual guide RNA, chemistry not given here) [CR003370]", "Avg % Edit", 2.83]
]}

Data request: Identify measured Avg % Edit associated with AAAUCUUACUGGAAGGCACU (tested as dual guide RNA, chemistry not given here) [CR005306]
Data returned: 9.97

Data request: Give the reported value of Avg % Edit for this record: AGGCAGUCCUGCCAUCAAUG (tested as dual guide RNA, chemistry not given here) [CR003348]
Data returned: 18.00

Data request: Consider the sequence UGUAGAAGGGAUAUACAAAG (tested as dual guide RNA, chemistry not given here) [CR003365] and give its recorded Avg % Edit.
Data returned: 26.90

Data request: Annotate the sequence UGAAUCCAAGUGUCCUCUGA (tested as dual guide RNA, chemistry not given here) [CR005303] with its measured Avg % Edit.
Data returned: 35.50

Data request: Give the measured Avg % Edit for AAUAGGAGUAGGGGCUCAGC (tested as dual guide RNA, chemistry not given here) [CR003384]
Data returned: 1.70

Data request: Provide measured Avg % Edit value, entry: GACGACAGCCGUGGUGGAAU (tested as dual guide RNA, chemistry not given here) [CR003388]
Data returned: 12.97

Data request: Give the value of Avg % Edit reported for the following: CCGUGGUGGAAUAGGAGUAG (tested as dual guide RNA, chemistry not given here) [CR003386]
Data returned: 8.27

Data request: Fill in Avg % Edit for record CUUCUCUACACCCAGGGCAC (tested as dual guide RNA, chemistry not given here) [CR003342]
Data returned: 22.10

Data request: In one line, give reported Avg % Edit of the entry UCACAGAAACACUCACCGUA (tested as dual guide RNA, chemistry not given here) [CR005300] .
Data returned: 31.53

Data request: Return reported Avg % Edit. Input sequence: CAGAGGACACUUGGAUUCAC (tested as dual guide RNA, chemistry not given here) [CR003343]
Data returned: 55.03

Data request: Specify reported Avg % Edit for the sequence shown: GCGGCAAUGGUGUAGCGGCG (tested as dual guide RNA, chemistry not given here) [CR003377]
Data returned: 17.53
